- Test system: HEK-293T
- experiment: Multiplex assay against HEK293T
- Format: toxicity, cell-based
- applied-conditions: human, 12 h, 1 µM, compound concentration 1 uM, replicate 2
measured-attribute: Population Pyknosed Nuclei (%)

# example entries with known answers
INSERT INTO results (molecule, measured_attribute, value_observed) VALUES
  ('NC(=O)Nc1cc(-c2cccc(F)c2)sc1C(=O)N[C@H]1CCCNC1', 'Population Pyknosed Nuclei (%)', '19%'),
  ('CN(C)CC#Cc1ccc(OCCCc2sc(N3CCc4cccc(C(=O)Nc5nc6ccccc6s5)c4C3)nc2C(=O)O)c(F)c1', 'Population Pyknosed Nuclei (%)', '50%');

Enquiry: Answer with reported Population Pyknosed Nuclei (%) of C[C@@H](NCCCc1cccc(C(F)(F)F)c1)c1cccc2ccccc12.Cl [CINACALCET HYDROCHLORIDE]
Return: 60%

Enquiry: Output Population Pyknosed Nuclei (%) of CN1CCC[C@@H]1CCO[C@](C)(c1ccccc1)c1ccc(Cl)cc1.O=C(O)/C=C/C(=O)O [CLEMASTINE FUMARATE]
Return: 62%

Enquiry: Return Population Pyknosed Nuclei (%) for the following molecule: CC(C)(O)CNc1ncc(-c2ccnc(Nc3ccnc(Cl)c3)n2)c(CC2CC2)n1
Return: 67%

Enquiry: Give recorded Population Pyknosed Nuclei (%). CN1CCN(CCOc2cc(OC3CCOCC3)c3c(Nc4c(Cl)ccc5c4OCO5)ncnc3c2)CC1
Return: 63%

Enquiry: For the molecule COc1cccc([C@@H](C)NCCCc2ccccc2Cl)c1.Cl [TECALCET HYDROCHLORIDE] , give its measured Population Pyknosed Nuclei (%) value.
Return: 67%

Enquiry: Output Population Pyknosed Nuclei (%) of Cc1cc(C)cc(-c2cnc3cc(Cl)c(-c4cccc(O)c4)cc3c2OCCCN)c1
Return: 50%

Enquiry: Note Population Pyknosed Nuclei (%) for the molecule shown: C=CC(=O)Nc1cccc(C(=O)Nc2ccc(Nc3cc(-c4[nH]c(SC)nc4C)ccn3)cc2)c1
Return: 47%

Enquiry: Look up Population Pyknosed Nuclei (%) of Cc1c(-c2ccc(O)cc2)n(Cc2ccc(OCCN3CCCCCC3)cc2)c2ccc(O)cc12 and report it.
Return: 46%

Enquiry: Give the measured Population Pyknosed Nuclei (%) for CN1CCN(c2ccc(OC(F)(F)F)c(Nc3ncc4c(n3)-c3c(c(C(N)=O)nn3CCO)CC4)c2)CC1
Return: 65%

Enquiry: Indicate the recorded Population Pyknosed Nuclei (%) value for this molecule: O=C1NCN(c2ccccc2)C12CCN(CCCOc1ccc(F)cc1)CC2 [SPIRAMIDE]
Return: 50%

Enquiry: State, in one line, measured Population Pyknosed Nuclei (%) of CNc1nc(NCc2ccc(NS(C)(=O)=O)cc2Cl)cc(-c2ccccn2)n1
Return: 50%

Enquiry: For the molecule COc1cc(-n2cnc3cc(-c4ccc(Cl)cc4)sc3c2=O)ccc1OCCN1CCCC1 , report Population Pyknosed Nuclei (%).
Return: 53%

Enquiry: Return reported Population Pyknosed Nuclei (%). Input molecule: Cc1nc(-c2ccc(-c3ccc(C(=O)N4CCc5cc6c(cc54)C4(CCN(C)CC4)CO6)cc3)c(C)c2)no1
Return: 60%

Enquiry: Give the reported value of Population Pyknosed Nuclei (%) for this record: Cn1cc(-c2[nH]c3cc(NC(=O)[C@H](N)C4CCCCC4)cc4c3c2C=NNC4=O)cn1
Return: 65%

Enquiry: Query Population Pyknosed Nuclei (%) for CC[C@H](C)C(=O)O[C@H]1C[C@@H](C)C=C2C=C[C@H](C)[C@H](CC[C@@H]3C[C@@H](O)CC(=O)O3)[C@H]21
Return: 50%
